# Protocol text: self-splicing fitness, log relative to wild type (ln ratio); higher = more splicing; Tetrahymena group I intron in knt gene, E. coli kanamycin selection, DiMSum; sequences stand for … in CUCUCU…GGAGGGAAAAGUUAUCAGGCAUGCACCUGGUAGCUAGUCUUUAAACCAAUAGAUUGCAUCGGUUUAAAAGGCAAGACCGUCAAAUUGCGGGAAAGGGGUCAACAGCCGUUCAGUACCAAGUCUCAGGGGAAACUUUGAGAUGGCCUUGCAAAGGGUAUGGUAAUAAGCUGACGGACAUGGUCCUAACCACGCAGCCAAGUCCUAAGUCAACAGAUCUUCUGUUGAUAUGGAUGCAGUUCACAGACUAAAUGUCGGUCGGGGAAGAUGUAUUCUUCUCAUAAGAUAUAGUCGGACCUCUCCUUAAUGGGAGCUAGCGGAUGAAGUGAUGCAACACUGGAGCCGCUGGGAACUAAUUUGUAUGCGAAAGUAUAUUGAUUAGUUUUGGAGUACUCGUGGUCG;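 note: selection with 25 µg/mL kanamycin versus none on LB agar overnight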
# Protocol conditions: 37 °C
Binary classification by self-splicing fitness (ln), with -2 as an inclusive lower bound for y; all other cases are n.

Problem: Threshold query (self-splicing fitness (ln) >= -2) on UGUAAGCAAUAUUACGGAAG
Result: n

Problem: CGCCAGCAAUAUUACGAACA , same question.
Result: y

Problem: Let us now turn to CAUUAGCAAUAUUACGAGUC
Result: y

Problem: What about this sequence? UACGAGCAAUAUUACGGUCG
Result: y

Problem: Could you do the same for AUGCAGCAAUAUUACGGUGA , please?
Result: y

Problem: Another sequence: CCGUAGCAAUAUUACGGGUC
Result: n

Problem: Please answer likewise for GACUAGCAAUAUUACGGCUA
Result: y

Problem: Do the same for AAAGAGCAAUAUUACGUUGA please
Result: n

Problem: Next: GUGUAGCAAUAUUACGUAGA
Result: y

Problem: Let us now turn to AGCAAGCAAUAUUACGGGAC
Result: n

Problem: Consider next the sequence AUGGAGCAAUAUUACGUUGC in the same way.
Result: n

Problem: Also, UCCUAGCAAUAUUACGGGGA please.
Result: y

Problem: # repeat for CUCCAGCAAUAUUACGGAGG
Result: n

Problem: Try this sequence next: AACUAGCAAUAUUACGCACC
Result: y

Problem: Please do the same for GCCUAGCAAUAUUACGACCC as well.
Result: y

Problem: Now the same for GUGUAGCAAUAUUACGCGGC
Result: y

Problem: Similarly, UGCCAGCAAUAUUACGAAUU ?
Result: n
